protocol_description: KARI assay of purified S. exigua KARI and variants with NADPH (Examples 6-9)
Assay type: biochemical
Measured kcat NADPH accompanies every entry in the list below.
Report the figure in s⁻¹ without appending any unit label.

molecule	unit_string	numeric_readout
Se1_KARI^LE1-his6: S. exigua KARI variant I95V (protein, UniProt D0WGK0 1-342, looked up, variant I95V, His6 tag, S. exigua KARI variant I95V) Ketol-acid reductoisomerase …: MSVKTKEKEMAVTILYEQDVDPKVIQGLKVGIIGYGSQGHAHALNLMDSGVDVRVGLREGSSSWKTAEEAGLKVTDMDTAAEEADVIMVLVPDEVQPKVYQEHIAAHLKAGNTLAFAHGFNIHYGYIVPPEDVNVIMCAPKGPGHIVRRQFTEGSGVPDLACVQQDATGNAWDIVLSYCWGVGGARSGIIKATFAEETEEDLFGEQAVLCGGLVELVKAGFETLTEAGYPPELAYFECYHEMKMIVDLMYESGIHFMNYSISNTAEYGEYYAGPKVINEQSREAMKEILKRIQDGSFAQEFVDDCNNGHKRLLEQREAINTHPIETTGAQIRSMFSWIKKED	s⁻¹	1.00
Se1_KARI^1AA10: S. exigua KARI variant S61C, S63D, I95T (protein, UniProt D0WGK0 1-342, looked up, variant S61C S63D I95T) Ketol-acid reductoisomerase …: MSVKTKEKEMAVTILYEQDVDPKVIQGLKVGIIGYGSQGHAHALNLMDSGVDVRVGLREGCSDWKTAEEAGLKVTDMDTAAEEADVIMVLVPDETQPKVYQEHIAAHLKAGNTLAFAHGFNIHYGYIVPPEDVNVIMCAPKGPGHIVRRQFTEGSGVPDLACVQQDATGNAWDIVLSYCWGVGGARSGIIKATFAEETEEDLFGEQAVLCGGLVELVKAGFETLTEAGYPPELAYFECYHEMKMIVDLMYESGIHFMNYSISNTAEYGEYYAGPKVINEQSREAMKEILKRIQDGSFAQEFVDDCNNGHKRLLEQREAINTHPIETTGAQIRSMFSWIKKED	s⁻¹	0.67
Se1_KARI^2C6: S. exigua KARI variant L57V, R58P (protein, UniProt D0WGK0 1-342, looked up, variant L57V R58P) Ketol-acid reductoisomerase …: MSVKTKEKEMAVTILYEQDVDPKVIQGLKVGIIGYGSQGHAHALNLMDSGVDVRVGVPEGSSSWKTAEEAGLKVTDMDTAAEEADVIMVLVPDEIQPKVYQEHIAAHLKAGNTLAFAHGFNIHYGYIVPPEDVNVIMCAPKGPGHIVRRQFTEGSGVPDLACVQQDATGNAWDIVLSYCWGVGGARSGIIKATFAEETEEDLFGEQAVLCGGLVELVKAGFETLTEAGYPPELAYFECYHEMKMIVDLMYESGIHFMNYSISNTAEYGEYYAGPKVINEQSREAMKEILKRIQDGSFAQEFVDDCNNGHKRLLEQREAINTHPIETTGAQIRSMFSWIKKED	s⁻¹	0.80

Provide measured kcat NADPH value, entry: Se1_KARI^AC1: S. exigua KARI variant S63D, I95A (protein, UniProt D0WGK0 1-342, looked up, variant S63D I95A) Ketol-acid reductoisomerase …: MSVKTKEKEMAVTILYEQDVDPKVIQGLKVGIIGYGSQGHAHALNLMDSGVDVRVGLREGSSDWKTAEEAGLKVTDMDTAAEEADVIMVLVPDEAQPKVYQEHIAAHLKAGNTLAFAHGFNIHYGYIVPPEDVNVIMCAPKGPGHIVRRQFTEGSGVPDLACVQQDATGNAWDIVLSYCWGVGGARSGIIKATFAEETEEDLFGEQAVLCGGLVELVKAGFETLTEAGYPPELAYFECYHEMKMIVDLMYESGIHFMNYSISNTAEYGEYYAGPKVINEQSREAMKEILKRIQDGSFAQEFVDDCNNGHKRLLEQREAINTHPIETTGAQIRSMFSWIKKED
1
